Measurement Target: monkey DLL3 on CHO-K1-cyno DLL3 cells (cynomolgus monkey)
Sequence (chain, as listed by the source limits assumed): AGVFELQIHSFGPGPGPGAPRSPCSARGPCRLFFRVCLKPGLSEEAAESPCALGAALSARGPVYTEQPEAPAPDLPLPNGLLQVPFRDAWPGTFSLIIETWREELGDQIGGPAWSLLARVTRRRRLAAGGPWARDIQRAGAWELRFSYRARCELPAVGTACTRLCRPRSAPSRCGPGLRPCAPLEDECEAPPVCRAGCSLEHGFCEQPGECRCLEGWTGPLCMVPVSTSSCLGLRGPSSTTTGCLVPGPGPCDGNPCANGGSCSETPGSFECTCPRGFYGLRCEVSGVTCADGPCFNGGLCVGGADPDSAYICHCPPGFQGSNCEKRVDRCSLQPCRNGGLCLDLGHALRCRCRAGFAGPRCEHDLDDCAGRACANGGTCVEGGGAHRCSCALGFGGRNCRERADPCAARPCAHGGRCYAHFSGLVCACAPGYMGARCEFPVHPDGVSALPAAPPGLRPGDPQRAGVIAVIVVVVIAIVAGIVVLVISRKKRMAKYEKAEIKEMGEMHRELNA
Experiment Summary: FACS, CHO-K1-cyno DLL3 cells, 0.8 nM antibody
Value Kind: MFI (MFI)
# unit: MFI | format: bare number

# Binder, Test Value
records = [
    ("Hab006VL1VH4-hFc (scFv, part only; not given: VL-VH linker and human IgG1 Fc, V domains shown, not shown: another chain or arm of the molecule; a dimerising Fc or GST; small tags and cut ends) VL: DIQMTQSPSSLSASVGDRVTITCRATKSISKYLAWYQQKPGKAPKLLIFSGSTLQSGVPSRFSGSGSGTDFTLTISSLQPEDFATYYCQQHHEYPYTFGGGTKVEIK VH: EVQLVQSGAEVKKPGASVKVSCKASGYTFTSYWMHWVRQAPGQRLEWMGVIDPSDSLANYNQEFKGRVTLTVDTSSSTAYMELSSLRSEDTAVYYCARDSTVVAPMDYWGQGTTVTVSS", 7840),
]

**Q:** Dear colleague, please send me the reported MFI for Hab009VL2aVH1-hFc (scFv, part only; not given: VL-VH linker and human IgG1 Fc, V domains shown, not shown: another chain or arm of the molecule; a dimerising Fc or GST; small tags and cut ends) VL: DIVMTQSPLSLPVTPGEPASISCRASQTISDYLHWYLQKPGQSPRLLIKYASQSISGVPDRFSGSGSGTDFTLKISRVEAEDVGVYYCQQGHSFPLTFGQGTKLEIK VH: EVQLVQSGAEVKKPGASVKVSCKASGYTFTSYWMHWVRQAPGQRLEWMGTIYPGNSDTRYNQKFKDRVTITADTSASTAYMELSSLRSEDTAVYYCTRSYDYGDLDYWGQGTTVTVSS when you can.
**A:** 24300
